# reported IC50; entries follow
Target: human TDO (TDO-expressing HEK293 cells) (Homo sapiens, UniProt P48775)
Construct: expressed in transfected cells
Sequence (P48775 whole entry): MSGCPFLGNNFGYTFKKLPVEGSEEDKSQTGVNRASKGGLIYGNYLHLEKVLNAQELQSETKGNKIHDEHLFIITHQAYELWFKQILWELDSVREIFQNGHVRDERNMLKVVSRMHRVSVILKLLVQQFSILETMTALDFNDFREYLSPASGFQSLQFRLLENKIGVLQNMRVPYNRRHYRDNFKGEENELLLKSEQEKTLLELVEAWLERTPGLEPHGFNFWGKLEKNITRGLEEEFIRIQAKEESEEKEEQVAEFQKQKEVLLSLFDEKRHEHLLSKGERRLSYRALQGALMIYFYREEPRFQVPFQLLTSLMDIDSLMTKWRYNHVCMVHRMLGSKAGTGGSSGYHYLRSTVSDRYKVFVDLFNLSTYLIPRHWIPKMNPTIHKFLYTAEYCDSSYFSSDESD
Assay: Cell based kynurenine assay, TDO-expressing HEK293 cell clones
Conditions: TDO-expressing HEK293 cells, 24 hours incubation; geometric mean; read-out: HEK293 TDO Kynurenine GMean IC50 (μM) (Cellular Assay)

Some entries whose results are on file:
[
  {
    "compound": "CC1(C(O)c2c(F)c(Cl)c(F)c3cn[nH]c23)CCC1 (stereo not shown) [Compound P-0264]",
    "recorded result": "> 10 µM"
  },
  {
    "compound": "OC(c1cc(Cl)cc2cn[nH]c12)C1CC(F)(F)C1 (stereo not shown) [Compound P-0017]",
    "recorded result": "0.0001 to 10 µM"
  },
  {
    "compound": "CC(C)(C1CCN(C(=O)c2ccccc2C(F)(F)F)CC1)C(O)c1cc(Cl)cc2cn[nH]c12 (stereo not shown) [Compound P-0366]",
    "recorded result": "0.0001 to 10 µM"
  }
]

Please provide the recorded IC50 for CC(C)(C1CCOCC1)C(O)c1c(F)c(Cl)cc2cn[nH]c12 (stereo not shown) [Compound P-0232] , tested on human TDO (TDO-expressing HEK293 cells) (Homo sapiens, UniProt P48775). 0.0001 to 10 µM

Field entry: O=C(c1cccnc1)N1CCC(C(F)(F)C(O)c2c(F)c(Cl)cc3cn[nH]c23)CC1 (stereo not shown) [Compound P-0341] 0.0001 to 10 µM

Same read-out for COC(=O)N1CCC(C2(C(O)c3c(F)c(Cl)cc4cn[nH]c34)CC2)CC1 (stereo not shown) [Compound P-0160] ? 0.0001 to 10 µM

What do we get for O=C(NC1CC1)N1CCC(C(F)(F)C(O)c2cc(Cl)cc3cn[nH]c23)CC1 (stereo not shown) [Compound P-0185] ? 0.0001 to 10 µM

Moving on to the next compound: O=C(NCC(F)(F)F)N1CCC(C(F)(F)C(O)c2cc(Cl)cc3cn[nH]c23)CC1 (stereo not shown) [Compound P-0333] 0.0001 to 10 µM

OC(c1cccc2cncn12)C1CCC(F)(F)CC1 (stereo not shown) [Compound P-0081] , same question. > 10 µM

Do the same for CC1(C(O)c2cc(Cl)cc3cn[nH]c23)CCN(S(C)(=O)=O)CC1 (stereo not shown) [Compound P-0286] please 0.0001 to 10 µM

Follow-up entry: OC(c1cc(Cl)cc2cn[nH]c12)C(F)(F)C1CCOCC1 (stereo not shown) [Compound P-0192] 0.0001 to 10 µM

Moving on to COCC(=O)N1CCC(C(F)(F)C(O)c2cc(Cl)cc3cn[nH]c23)CC1 (stereo not shown) [Compound P-0350] 0.0001 to 10 µM

Now try CC1(C(O)c2c(Cl)ccc3cn[nH]c23)CCCCC1 (stereo not shown) [Compound P-0207] . 0.0001 to 10 µM

Let us now turn to CC1(C)OC(C)(C)C12CC(O)(c1cc(Cl)cc3cn[nH]c13)C2 [Compound P-0243] 0.0001 to 10 µM

Consider next the compound CC(=O)N1CCC(C(C)(C)C(O)c2cc(Cl)cc3cn[nH]c23)CC1 (stereo not shown) [Compound P-0310] in the same way. 0.0001 to 10 µM

// query: O=S(=O)(c1ccccc1)C1(C(O)c2cc(Cl)cc3cn[nH]c23)CC1 (stereo not shown) [Compound P-0266] > 10 µM

And CC1(C(O)c2c(F)c(Cl)c(F)c3cn[nH]c23)CCCCC1 (stereo not shown) [Compound P-0123] ? 0.0001 to 10 µM

Try the compound CCNC(=O)N1CCC(C(C)(C)C(O)c2cc(Cl)cc3cn[nH]c23)CC1 (stereo not shown) [Compound P-0399] 0.0001 to 10 µM

Okay, and Cc1cc(N2CCN(S(C)(=O)=O)C(C)(C)C2)c2[nH]ncc2c1 [Compound P-0090] ? 0.0001 to 10 µM

Now give it for COc1ccccc1NC(=O)N1CCC(C(C)(C)C(O)c2cc(Cl)cc3cn[nH]c23)CC1 (stereo not shown) [Compound P-0179] too. 0.0001 to 10 µM

Another compound to check: CC1(C)CC(C(O)c2cc(Cl)cc3cn[nH]c23)C1 (stereo not shown) [Compound P-0196] 0.0001 to 10 µM

Now the compound CC1(C(O)c2c3c(cc4cn[nH]c24)CC3)CCCCC1 (stereo not shown) [Compound P-0054] > 10 µM

Now the compound CC(C)(C1CCN(C(=O)NC2CC2)CC1)C(O)c1cc(Cl)cc2cn[nH]c12 (stereo not shown) [Compound P-0176] 0.0001 to 10 µM

CC1(C)CN(c2cc(Cl)c(F)c3cn[nH]c23)CCN1S(C)(=O)=O [Compound P-0097] , same question. 0.0001 to 10 µM

Param item: CC(C)(C1CCN(C(=O)Nc2cccc(C(F)(F)F)c2)CC1)C(O)c1cc(Cl)cc2cn[nH]c12 (stereo not shown) [Compound P-0400] 0.0001 to 10 µM
